Molecular target: T1, hBMPR1B-His (human BMPR1B extracellular domain, residues K14 to R126, with C-terminal 9x-Histidine tag) (human, UniProt O00238 14-126)
T1 construct: Residues K14-R126 are counted on the hBMPR1B ORF (NM_001203); The IgK signal peptide of the vector is left out; also called hBMPR1B-CHis; human BMPR1B-his
T1 sequence: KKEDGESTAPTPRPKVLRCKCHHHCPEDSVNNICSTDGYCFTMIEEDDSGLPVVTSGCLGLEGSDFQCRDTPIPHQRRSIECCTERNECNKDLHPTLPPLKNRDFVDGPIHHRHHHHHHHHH
Test: Biacore
observationType: Kd (nM)
Kindly provide the numeric value in nM only, without the unit symbol.

Known results for binders:
[[record]]
binder = "SC91.172 (antibody, V domains shown) VH: QVQLQQPGADLVKPGTSVKLSCKASGYTFTSYWMQWVKQRPGQGLEWIGEIDPSDTYTMYNQKFKGKATLTVDTSSSTAYMQLSSLTSEDSAVYYCARFGYYVDYWGQGTTLTVSS VL: DVVMTQTPLSLPVSLGDQASISCRSSQSLVHSTGNTYLHWYLQKAGQSPKLLIYKVSNRFSGVPDRFSGSGSGTDFTLKISRVEAEDLGVYFCSQSTHVPFTFGSGTKLEIK"
observationtype = "Kd"
value = 1.96

[[record]]
binder = "SC91.160 (antibody, V domains shown) VH: QIQLVQSGPELKKPGETVKISCKASGYTFTTYGMNWVKQAPGKGLKWMGWINTYSGVPSSADDFKGRFAFSLETSASTAYLLINNLKNEDTATYFCARSELRNWYFDVWGTGTTVTVSS VL: SFVMTQTPKFLLVSAGDRVTITCKASQNMGHDVAWYQQKPGQSPKLLIYSASNRYTGVPDRFTGSGYGTDFTFTISTVQAEDLAVYFCQQDYSSPFTFGSGTKLEMK"
observationtype = "Kd"
value = 3.12


# ---- query binder ----
Need Kd, item SC91.187 (antibody, V domains shown) VH: QVQLQQPGPEFVKPGASVKLSCKASGYTFTSYWVQWVKQRPGQGLEWIGEIDPSDNYTLYNQNFKGKATLTVDTSSSTAYMQLSSLTSEDSAVYYCARFGFYVDYWGQGTTLTVSS VL: DVVMTQTPLSLPVSLGEQASISCRSSQSLVHSTGNTYLHWYLQKPGQSPKLLIYKVSNRFSGVPDRFSGSGSGTDFTLKISRVEAEDLGVYFCSQSTHVPFTFGSGTKLEIK
2.86
